Entries and their Metabolism rate
- Species on record: Rattus norvegicus
- assay text: Rate of metabolism in liver microsomes (BNF treated rats)
- Assay type: ADME
measure: Metabolism rate (pmol/min/nmol P-450)

INSERT INTO measurements (line_notation, measure, unit, assay_result) VALUES
  ('CC(=O)C[C@H](c1ccccc1)c1c(O)c2cc(O)ccc2oc1=O', 'Metabolism rate', 'pmol/min/nmol P-450', 113.7),
  ('CC(=O)C[C@@H](c1ccc(O)cc1)c1c(O)c2ccccc2oc1=O', 'Metabolism rate', 'pmol/min/nmol P-450', 13.7),
  ('CC(=O)C[C@@H](c1ccccc1)c1c(O)c2cc(O)ccc2oc1=O', 'Metabolism rate', 'pmol/min/nmol P-450', 41.2),
  ('CC(=O)C[C@H](c1ccc(O)cc1)c1c(O)c2ccccc2oc1=O', 'Metabolism rate', 'pmol/min/nmol P-450', 22.4),
  ('CC(=O)C[C@@H](c1ccccc1)c1c(O)c2ccc(O)cc2oc1=O', 'Metabolism rate', 'pmol/min/nmol P-450', 216.8);
